FIC90 for assorted molecules
Test system: Mycobacterium tuberculosis Erdman (autoluminescent)
Experiment: FIC90 (Loewe) at 90% inhibition (log2); higher = more antagonistic
Conditions: in vitro model: intracellular J774; time point: constant = terminal
The reply should be a number, written without any unit.

Guide cases for FIC90, answers given:
>>> quantitative_readout("CC(=O)NC[C@H]1CN(c2ccc(N3CCOCC3)c(F)c2)C(=O)O1 [linezolid] + NC(=O)c1cnccn1 [pyrazinamide]")
0.0529
>>> quantitative_readout("COc1nc2ccc(Br)cc2cc1[C@@H](c1ccccc1)[C@@](O)(CCN(C)C)c1cccc2ccccc12 [bedaquiline] + CC[C@@H](CO)NCCN[C@@H](CC)CO [ethambutol]")
-0.00203

I would be grateful if you could share the reported FIC90 for CC(C)/N=c1\cc2n(-c3ccc(Cl)cc3)c3ccccc3nc-2cc1Nc1ccc(Cl)cc1 [clofazimine] + NC(=O)c1cnccn1 [pyrazinamide] .
0.158

Now this one: NNC(=O)c1ccncc1 [isoniazid] + NC(=O)c1cnccn1 [pyrazinamide]
0.267

Now this one: NNC(=O)c1ccncc1 [isoniazid] + CC(=O)NC[C@H]1CN(c2ccc(N3CCOCC3)c(F)c2)C(=O)O1 [linezolid]
0.155
